Measured kd, listed per entry.
- system-under-test: T1, His9-hMSR1 (human MSR1 extracellular domain) (Homo sapiens, UniProt P21757)
- T1 construct: human MSR1 extracellular domain expressed with a N-terminal nonahistidine tag; His9 (nonahistidine) (N); purchased R&D Systems 2708-MS
- T1 sequence (P21757 77-451 limits assumed): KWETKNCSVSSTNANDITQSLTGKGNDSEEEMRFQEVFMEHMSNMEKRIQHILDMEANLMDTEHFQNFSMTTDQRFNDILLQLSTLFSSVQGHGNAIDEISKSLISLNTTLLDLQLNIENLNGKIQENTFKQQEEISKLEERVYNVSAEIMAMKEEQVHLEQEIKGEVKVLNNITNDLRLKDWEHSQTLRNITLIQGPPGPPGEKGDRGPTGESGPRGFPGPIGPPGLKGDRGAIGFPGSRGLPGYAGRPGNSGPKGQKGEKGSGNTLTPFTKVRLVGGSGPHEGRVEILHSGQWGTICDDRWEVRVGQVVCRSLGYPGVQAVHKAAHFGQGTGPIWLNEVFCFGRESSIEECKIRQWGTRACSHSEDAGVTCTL
- assay-explanation: Biacore surface plasmon resonance binding kinetics of anti-MSR1 mAbs, antibody-capture format
- study-conditions: 37° C.; analyte His9-hMSR1; * = no dissociation observed, kd manually fixed at 1.00E−05; NB = no binding observed
- Protocol: Binding affinities and kinetic constants of human anti-MSR1 antibodies for different MSR1 reagents were determined by real-time surface plasmon resonance (Biacore 4000). […] The association rate (ka) and dissociation rate (kd) were determined by fitting the real-time binding sensorgrams to a 1:1 binding model with mass transport limitation using Scrubber 2.0c curve-fitting software. […]

molecule: H1H27731P-N297Q: one of "Twelve anti-MSR1 antibodies"; "made with an N297Q single point mutation in human Fcγ portion" (antibody, V domains shown) VH: QLQLQESGPGLVKPSETLSLTCTVSGGSISRISYYWGWIRQPPGKGLEWIGSIYDSGSTYYNPSLKSRVTISIDTSKNQFSLKLSSVTAADTAVYYCVRYSSSSAFAFDYWGQGTLVTVSS VL: DIQMTQSPSSVSASVGDRVTITCRASQGISSWLAWYQQKPGKAPKLLIYAASSLQSGVPSRFSGSGSGTDFTLTISSLQPEDFATYYCQQANSFPFTFGPGTKVDIKR
endpoint-unit: s⁻¹
kd: 0.000132
//
molecule: H1H21227N-N297Q: "modified versions of 21227N (H1H21227N-N297Q and H1H21227N-N297D)"; anti-MSR1 antibody "with a N297Q single point mutation" (antibody, V domains shown) VH: QVQLVQSGAEVKKPGASVKVSCKVSGYTLTELSIHWVRQVPGKGLEWMGGFDPEEGETIFAQEFRDRVTLTEDTSPDTAYMELSSLKSEDAAVYYCTTPRYCNNGICYDYWGQGTLVTVSS VL: DIQMTQSPSSLSASVGDRVTITCRASQSISNYLNWYQQKPGKAPKLLIYTASSLQSGVPSRFSGSGSGTDFTLTISSLQTEDFATYYCQQSYSNFPITFGQGTRLEIKR
endpoint-unit: s⁻¹
kd: 1.23e-05
//
molecule: H1H27729P-N297Q: anti-MSR1 antibody "made with an N297Q single point mutation in human Fcγ portion" (antibody, V domains shown) VH: QVQLVESGGGLVKPGGSLRLSCAASGFIFSDYYMSWIRQAPGKGLEWVSYISSSGTTIYGDSVKGRFTMSRDNAKNSLYLQMNSLRAEDTAVYYCARNYALFDYWGQGTLVTVSS VL: DIQMTQSPSSLSASVGDRVTITCQASQDISKYLNWYQQKPGKAPKLLIYYTSNLETGVPSRFSGSGSGTDFTFTISSLQPEDIATYYCHQSDYLPFTFGPGTKVDIKR
endpoint-unit: s⁻¹
kd: 0.00204
//
molecule: H1H27739P-N297Q: anti-MSR1 antibody "made with an N297Q single point mutation in human Fcγ portion" (antibody, V domains shown) VH: EVQLVESGGGLVQPGGSLRLSCTASGFTFSSYAMSWVRQAPGKGLEWVSAISGTGSSTYFTDSVKGRFAISRDNSKNTLYLQMNSLRAEDTAVYYCAKDGEWLSTVTLFDYWGQGTLVTVSS VL: EIVMTQSPATLSVSPGERATLSCRASQSVSSNLAWYQQKPGQAPRLLIYGASTRATGIPARFSGSGSGTDFTLTISSLQSEDFALYYCQQYFIWPPHPTFGPGTKVDIKR
endpoint-unit: s⁻¹
kd: 0.00288
